- Target or test system: T1, CD25 (as used on the Carterra LSA) (Homo sapiens (Human), UniProt P01589 22-240)
- T1 sequence: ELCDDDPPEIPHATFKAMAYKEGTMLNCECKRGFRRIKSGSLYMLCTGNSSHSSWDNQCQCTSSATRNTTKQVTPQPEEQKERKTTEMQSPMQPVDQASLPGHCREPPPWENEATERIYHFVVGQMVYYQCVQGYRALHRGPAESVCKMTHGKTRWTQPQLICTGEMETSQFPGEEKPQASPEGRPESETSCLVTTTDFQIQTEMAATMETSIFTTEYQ
- Assay comment: Carterra LSA binding kinetics
Parameter: koff (s⁻¹)
// units = s⁻¹; emit number, no label

Below are worked cases with known answers.
INSERT INTO assay_data (binder, parameter, assay_value) VALUES
  ('IBIO-101-CHO-afuc (SD-889825-CG-A; IBIO-101, CHO cells Afucosylated) (antibody, human IgG1, kappa, V domains shown, Same antibody made in CHO cells, afucosylated glycans; also called RTX-003; hD11) VH: QVQLVQSGAEVKKPGASLKISCKGSGYTFTDYAMHWVRQAPGQGLEWIGVISTYSGDAIYAQKFQGRATMTVDTSTSTAYLELSSLRSEDTAVYYCARGVTFDYWGQGTTVTVSS VL: DIQMTQSPSSLSASVGDRVTITCRASQDISNYLEWYQQKPGKAPKLLVYNAKTLAEGVPSRFSGSGSGTDFTLTISSLQPEDFGTYYCQHHYDTPYTFGQGTKLEIKR', 'koff', 0.00119),
  ('IBIO-101-plant-WT (SD-889825-PW-A; IBIO-101, wild-type plant) (antibody, human IgG1, kappa, V domains shown, Same antibody made in wild-type Nicotiana benthamiana plants; also called RTX-003; hD11) VH: QVQLVQSGAEVKKPGASLKISCKGSGYTFTDYAMHWVRQAPGQGLEWIGVISTYSGDAIYAQKFQGRATMTVDTSTSTAYLELSSLRSEDTAVYYCARGVTFDYWGQGTTVTVSS VL: DIQMTQSPSSLSASVGDRVTITCRASQDISNYLEWYQQKPGKAPKLLVYNAKTLAEGVPSRFSGSGSGTDFTLTISSLQPEDFGTYYCQHHYDTPYTFGQGTKLEIKR', 'koff', 0.0012),
  ('IBIO-101-CHO-WT (SD-889825-CW-A; IBIO-101, wild-type CHO cells) (antibody, human IgG1, kappa, V domains shown, The signal peptide is marked only by bold print (lost here); also called RTX-003; hD11) VH: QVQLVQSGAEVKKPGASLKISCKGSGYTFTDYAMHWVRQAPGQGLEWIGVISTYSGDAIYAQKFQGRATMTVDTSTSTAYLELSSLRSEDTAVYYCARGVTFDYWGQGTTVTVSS VL: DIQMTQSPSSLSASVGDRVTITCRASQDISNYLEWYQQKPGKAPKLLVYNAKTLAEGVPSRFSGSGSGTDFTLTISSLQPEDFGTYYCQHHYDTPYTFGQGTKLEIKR', 'koff', 0.00192);

Lab note: next binder to report on.
IBIO-101-plant-afuc (SD-889825-PC-A; IBIO-101, c-105 plant Afucosylated) (antibody, human IgG1, kappa, V domains shown, Same antibody made in C105 deltaXT/FT N. benthamiana plants, glycans without fucose and xylose; also called RTX-003; hD11) VH: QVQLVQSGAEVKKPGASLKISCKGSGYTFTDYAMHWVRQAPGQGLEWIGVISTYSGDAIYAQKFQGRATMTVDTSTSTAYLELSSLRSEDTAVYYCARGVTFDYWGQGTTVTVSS VL: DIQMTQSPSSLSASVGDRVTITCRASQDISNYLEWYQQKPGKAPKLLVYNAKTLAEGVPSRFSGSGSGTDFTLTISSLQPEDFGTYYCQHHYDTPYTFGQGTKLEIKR has a reported koff of 0.00207
